# ASSAY PROCEDURE: qHTS Assay for Lipid Storage Modulators in Drosophila S3 Cells
# CONDITION DESCRIPTION: BODIPY lipid droplet fluorescence, 18-24 h, cells fed with added oleic acid; series mostly up to 46.1 µM
About 2,100 (0.66%) of roughly 320,000 compounds were called active. Another 53% or so got no clear call; they are omitted. The call rests on the fitted dose curve; in most records, active means well fitted inhibition curve with a large enough effect in the signal ratio, with a control signal flat (not every such curve was filed as active); inconclusive means small, poorly fitted or top-dose-only effect, or effect the other way, or a change in a side signal; inactive means flat fitted curve, though single readings scatter; the % refers to the signal ratio. The entries come from a sample that favours actives as a whole.
A correct response names exactly one class from active, inactive

q: Hello, I am checking results. What call was entered for O=C(CS(=O)(=O)c1ccccc1)N1CCCCCC1 ?
a: active

q: What classification did O=C(CCNS(=O)(=O)c1ccccc1C(F)(F)F)N1CCN(C(c2ccccc2)c2ccccc2)CC1 end up with in this test?
a: inactive

q: Query: recorded result category for O=C(CCNS(=O)(=O)c1ccccc1F)N1CCN(C(c2ccccc2)c2ccccc2)CC1 in this test
a: active

q: Tell me the assay call for CCOCc1[nH]c(=S)[nH]c(=O)c1Cc1ccc(OCC)cc1 please.
a: inactive

q: Answer briefly: the call reported for COc1ccc(OCC(=O)N2CC3(C)CC2CC(C)(C)C3)cc1 (stereo not given) in this assay.
a: inactive

====

# ASSAY PROCEDURE: qHTS Assay for Lipid Storage Modulators in Drosophila S3 Cells
# CONDITION DESCRIPTION: BODIPY lipid droplet fluorescence, 18-24 h, cells fed with added oleic acid; series mostly up to 46.1 µM
# Source text: NIH Molecular Libraries Probe Production Centers Network [MLPCN] NIH Chemical Genomics Center [NCGC] […] Triacsin C (Sigma-Aldrich T-4540), an inhibitor of long-chain fatty acyl CoA synthetase that blocks synthesis of triglycerides, was used as a positive control for lipid under-storage. […] Fluorescence was detected by excitation of the fluorophores with a 488-nm laser on an Acumen Explorer (TTP Lab Tech). […] Cells were detected using channel 3 (575-640 nm) with 5-um width and 100-um depth filters. […]
About 2,100 (0.66%) of roughly 320,000 compounds were called active. Not shown: some 53% with an inconclusive outcome. Calls come from the whole dose curve; as a rule, active = well fitted inhibition curve with a large enough effect in the signal ratio, with a control signal flat (not every such curve was filed as active); inconclusive = small, poorly fitted or top-dose-only effect, or effect the other way, or a change in a side signal; inactive = flat fitted curve, though single readings scatter; the % refers to the signal ratio. This excerpt belongs to a sample that is enriched for actives.
Answer with one of the outcomes class 1 (active), class 0 (inactive)

q: Would you mind telling me which call this test gave Cc1ccccc1C(=O)Nc1nnc(SCC(=O)NCc2ccco2)s1 ?
a: class 0

q: Check the results log: what was the call for CCOC(=O)c1sc(NC(=O)c2ccccc2C(=O)O)c(C(=O)OCC)c1C ?
a: class 0

q: Name the outcome recorded for Cc1nc2ccccn2c1C(=O)NNC(=O)Nc1ccccc1 in the assay.
a: class 0

q: Query: recorded result category for COCc1cc(CN2CCN(Cc3ccsc3)C(CCO)C2)ccc1OC (stereo unspecified) in this test
a: class 0

q: // outcome(item) with item = COc1cccc(/C(O)=C2/C(=O)C(=O)N(CCN(C)C)C2c2ccc(Br)cc2)c1 (stereo unspecified)
a: class 1

q: Please let me know the test result on file for O=C(Nc1ccc(Oc2ncnc3cc(Cl)ccc23)nc1)Nc1cccc(C(F)(F)F)c1 .
a: class 0

q: Could you check what this test reported for COc1cccc(C2/C(=C(/O)c3ccncc3)C(=O)C(=O)N2CCCN(C)C)c1 (stereo unspecified) ?
a: class 1

q: Check the results log: what was the call for CCCSc1ccc([C@@H]2[C@H]3C(=O)N(CC)C(=O)[C@H]3[C@]3(C(=O)OC)CCCN23)cc1OC ?
a: class 0

q: Please state the recorded outcome for this molecule: Cc1cc(C(=O)NNC(=S)NCc2ccco2)nn1C
a: class 0

q: Hey, what did the test say about O=C(Nc1nccs1)c1ccccc1Br ?
a: class 0

q: Test call for this molecule, please: NC(=O)N/N=C(/CCCCCC/C(=N\NC(N)=O)c1ccccc1)c1ccccc1
a: class 0

q: How was COc1ccc(CCCC(=O)NC2CCCCC2)cc1 classified in this test?
a: class 0

q: Could you please tell me the result logged for Cn1cccc1/C=N/NC(=O)CSc1nc2ccccc2[nH]1 in this assay?
a: class 0

q: Assay outcome for CCCN(CCC)S(=O)(=O)c1nc2nc(C)cc(C)n2n1 : what was it?
a: class 0

q: How was O=C(COc1ccc2c(c1)CCC2)N1CCN(c2cccc(C(F)(F)F)c2)CC1 classified in this test?
a: class 0

q: Can you look up the reported call for COC(=O)c1cc(OC)c(OC)cc1NCC(=O)Nc1ccc(C)cc1 for me?
a: class 0

q: Query: recorded result category for O=C(Nc1cccc(OC(=O)c2ccc(Br)o2)c1)c1ccccc1 in this test
a: class 0

q: What is the recorded call for this molecule in the test? O=C(Nc1cccc(C(F)(F)F)c1)c1cncs1
a: class 0

q: Short answer needed: outcome of this test for Cc1nnc(NC(=O)c2ccccc2Br)s1 ?
a: class 0

q: Recorded test outcome, item COc1ccc(NC(C)=O)cc1NC(=O)c1ccc(Cl)cc1
a: class 0

q: // param item: O=C1OCCN/C1=C\C(=O)c1ccc(Cl)cc1 ; yields the recorded call
a: class 0

q: Per the assay record, what outcome was assigned to COc1ccc(Cl)cc1NC(=O)CN(C)C1CCCCC1 ?
a: class 0

q: Which result was noted for this molecule in the test: COc1cccc(C2/C(=C(/O)c3ccc(F)cc3)C(=O)C(=O)N2CCN(C)C)c1 (stereo unspecified)
a: class 0

q: # lookup: test call for O=C(COC(=O)COc1ccc2c(c1)CCC2)Nc1ccccc1
a: class 0

q: What classification did CCN(C(=O)c1ccc(NC(C)=O)cc1)c1ccccc1 end up with in this test?
a: class 0

q: For COc1ccc(OC)c(NC(=O)CN(Cc2ccc(F)cc2)C2CCCCC2)c1 , which call appears in the assay record?
a: class 1

q: Assay result, entry CCOc1ccc(NC(=O)CCC(=O)NNC(=O)c2ccco2)cc1 — outcome?
a: class 0

q: Which outcome did this test record for the molecule CCn1nc(C)c(CN2CCCC(CO)(Cc3ccccc3)C2)c1C (stereo unspecified) ?
a: class 0

q: What did this assay record as the result for O=C(CC1C(=O)NCCN1Cc1cccc(C(F)(F)F)c1)NC1CCCCCC1 (stereo unspecified) ?
a: class 1

q: In this assay, the call recorded for Cc1cc(NS(=O)(=O)c2ccc(NC(=O)CSc3nc4ncccc4[nH]3)cc2)nc(C)n1 was what?
a: class 0

q: Can you look up the reported call for CCCOc1ccc(N2C(=O)CC(NCCc3ccc(S(N)(=O)=O)cc3)C2=O)cc1 (stereo unspecified) for me?
a: class 0

q: What is the recorded call for this molecule in the test? CC(=O)N1CCN(S(=O)(=O)c2c(C)n(C)c(=O)n(C)c2=O)CC1
a: class 0

q: Per the assay record, what outcome was assigned to COc1ccc(OC)c(NC(=O)CN(Cc2ccc(Cl)cc2)S(C)(=O)=O)c1 ?
a: class 0

q: Test call, this molecule: CNC(=O)N(C1=NCCCCC1)c1ccc(Br)cc1
a: class 0

q: Short answer needed: outcome of this test for COc1ccc(C2/C(=C(\O)c3ccc(OC)c(Cl)c3)C(=O)C(=O)N2CCN(C)C)cc1 (stereo unspecified) ?
a: class 0

q: Could you check what this test reported for COC(=O)c1ccc(C2C(C(=O)OCC(C)C)=C(C)N=C3SCCC(=O)N32)cc1 (stereo unspecified) ?
a: class 0

q: Each molecule tested received a call. Report the one for CC(=O)N1CCc2cc(Br)cc(S(=O)(=O)N3CCCCC3)c21 .
a: class 0

q: State the result this test recorded for CCN1CCCC(OC(=O)Nc2ccccc2)C1 (stereo unspecified) .
a: class 0

q: Hi team, can someone confirm the assay call for O=C(CC1C(=O)NCCN1Cc1ccccc1)NC1CCCCCC1 (stereo unspecified) ?
a: class 0

q: Outcome? O=C(Nc1nncs1)c1ccccc1Br
a: class 1

q: Hi, sorry to bother you, what did the test record for COc1cccc(C2/C(=C(\O)c3c(C)nc4c(C)cccn34)C(=O)C(=O)N2CCCN(C)C)c1 (stereo unspecified) ?
a: class 0

q: Recorded test call requested for Cc1cccc(N2CCN(C(=O)COc3ccc4c(c3)CCC4)CC2C)c1 (stereo unspecified)
a: class 1

q: Record request — test call for O=C(CSc1nnc2c(Cl)cc(C(F)(F)F)cn12)Nc1ccc2c(c1)OCO2
a: class 0

q: Query: recorded result category for Cn1ncc(Br)c1C(=O)Nc1ccc(F)cc1F in this test
a: class 0

q: Recorded call for COCCNc1nc(-c2ccccc2)nc2ccccc12 ?
a: class 0

q: Any idea what this test logged for COc1ccccc1C(=O)Nc1nnc(SCC(=O)NCc2ccco2)s1 ?
a: class 1
